# credit: PubChem BioAssay AID248

# System: L1210 leukemia ip in BDF1 mice, survival T/C
# testDescription: NCI In Vivo Anticancer Drug Screen. Data for tumor model L1210 Leukemia (intraperitoneal) in B6D2F1 (BDF1) mice
# measurementParameters: endpoint: mean survival time; dose: 400.0 mg/kg/injection; schedule: Q01DX009 (ip); vehicle: Klucel (hydroxypropylcellulose) (HPC); higher = longer survival
Inconclusive results and toxic doses are left out.
reportedEndpoint: T/C

molecule: COc1cccc(CNc2ccc(SC)cc2)c1OC
result: 94 % of control

molecule: COc1ccc(C2CCC(=O)CC2C(=O)O)cc1 (stereo unspecified)
result: 103 % of control

molecule: C/C(=N\n1c(-c2ccccc2)nc2ccccc2c1=O)c1ccc(C)cc1
result: 100 % of control

molecule: Nc1cc2c3ccccc3c(F)cc2c2ccccc12
result: 101 % of control

molecule: CCOC(=O)c1c(C)[nH]c(-c2ccccc2)c1C
result: 95 % of control

molecule: Cc1cccc([N+](=O)[O-])c1-c1ccccc1C(=O)O
result: 97 % of control

molecule: COc1cc([N+](=O)[O-])ccc1NC(=O)Oc1ccc(-c2ccccc2)cc1
result: 98 % of control

molecule: Cc1c(C#N)oc2cccc(O)c12
result: 96 % of control

molecule: O=C(Oc1ccccc1Cl)c1ccc(Cl)cc1Cl
result: 91 % of control

molecule: c1ccc(CN=C(c2ccccc2)c2ccccc2)cc1
result: 106 % of control

molecule: CCN(CC)c1ccc(Cc2ccc(N(CC)CC)cc2Br)c(Br)c1
result: 107 % of control

molecule: Cc1cccc(C)c1NS(=O)(=O)c1ccccc1
result: 98 % of control

molecule: Cc1cc(Cl)ccc1NC(=O)c1cccc(C(=O)Nc2ccc(Cl)cc2C)c1
result: 87 % of control

molecule: CC(C)(C)NC(=O)NCCc1ccccc1
result: 103 % of control

molecule: C(=Nc1ccccc1)c1ccccc1B1Oc2ccccc2O1
result: 119 % of control

molecule: COC(=O)c1ccccc1NC(=O)c1cccc(F)c1
result: 103 % of control

molecule: O=C(Nc1nccs1)Nc1ccc(Cl)cc1[N+](=O)[O-]
result: 102 % of control

molecule: CC(O)c1cccc(NC(=O)NC(C)(C)C)c1 (stereo unspecified)
result: 113 % of control

molecule: CCCC1(C)COB(c2ccc(C)cc2)OC1
result: 88 % of control

molecule: CCCCCCCCCc1c(C)[nH]c2ccccc2c1=O
result: 86 % of control

molecule: Cc1cccc(C)c1NC(=S)N(CCC#N)C(C)C
result: 96 % of control

molecule: S=c1[nH]c2ccccc2s1
result: 95 % of control

molecule: CN(C)/C=N/Nc1ccc([N+](=O)[O-])cc1[N+](=O)[O-]
result: 96 % of control

molecule: NC(N)=NC(N)=Nc1ccccc1-c1ccccc1
result: 86 % of control

molecule: S=P(Nc1ccc(Cl)cc1Cl)(Nc1ccc(Cl)cc1Cl)c1ccccc1
result: 110 % of control

molecule: Nc1ccccc1C(=O)OCCc1ccccc1
result: 95 % of control

----------
# Test system: L1210 leukemia ip in BDF1 mice, survival T/C
# testDescription: NCI In Vivo Anticancer Drug Screen. Data for tumor model L1210 Leukemia (intraperitoneal) in B6D2F1 (BDF1) mice
# measurementParameters: endpoint: mean survival time; dose: 100.0 mg/kg/injection; schedule: Q01DX001 (ip); vehicle: saline; higher = longer survival
Toxic doses and inconclusive results are not listed.
Recorded measurements of T/C, one per entry

compound: CN(CCC(=O)O)S(=O)(=O)c1ccccc1
T/C: 103 % of control
//
compound: CC1=CC2=C(C(=O)C1=O)C(C)CCC2C(C)C (configuration not stated)
T/C: 98 % of control
//
compound: CC(=O)NCC(N)=S
T/C: 102 % of control
//
compound: O=S(=O)(CC(Cl)c1ccccc1)c1ccc(F)cc1 (configuration not stated)
T/C: 109 % of control
//
compound: CC(=O)OC1COC(n2cnc3c(N)ncnc32)C(OC(C)=O)C1OC(C)=O (configuration not stated)
T/C: 97 % of control
//
compound: COc1cc(C)n2nnnc2n1
T/C: 96 % of control
//
compound: c1ccc(CN2C3c4ccccc4C2c2ccccc23)cc1
T/C: 96 % of control

----------
# Tested on: L1210 leukemia ip in BDF1 mice, survival T/C
# testDescription: NCI In Vivo Anticancer Drug Screen. Data for tumor model L1210 Leukemia (intraperitoneal) in B6D2F1 (BDF1) mice
# measurementParameters: endpoint: mean survival time; dose: 100.0 mg/kg/injection; schedule: Q01DX009 (ip); vehicle: water; higher = longer survival
Toxic doses and inconclusive results are not listed.
Recorded measurements of T/C, one per entry

smilesInput: Clc1ccc(-c2cc(=[N+]3CCOCC3)ss2)cc1
target: L1210 leukemia ip in BDF1 mice, survival T/C
T/C: 96 % of control

smilesInput: NC(=S)N/N=C\c1c[nH]c2nccnc12
target: L1210 leukemia ip in BDF1 mice, survival T/C
T/C: 102 % of control

smilesInput: CCOC(CN(Cc1ccc(OCc2ccccc2)c(OC)c1)S(=O)(=O)c1ccc(C)cc1)OCC
target: L1210 leukemia ip in BDF1 mice, survival T/C
T/C: 105 % of control

smilesInput: COC(CSc1ncc2cnccn12)OC
target: L1210 leukemia ip in BDF1 mice, survival T/C
T/C: 102 % of control

smilesInput: CN(C)Cc1ccc(N)cc1
target: L1210 leukemia ip in BDF1 mice, survival T/C
T/C: 88 % of control

----------
# System: L1210 leukemia ip in BDF1 mice, survival T/C
# testDescription: NCI In Vivo Anticancer Drug Screen. Data for tumor model L1210 Leukemia (intraperitoneal) in B6D2F1 (BDF1) mice
# measurementParameters: endpoint: mean survival time; dose: 200.0 mg/kg/injection; schedule: Q04DX002 (ip); vehicle: saline; higher = longer survival
Toxic doses and inconclusive results are not listed.
Recorded measurements of T/C, one per entry

molecule: C/C=C/C=C/COC(=O)CCCCCCCC
T/C: 103 % of control

molecule: CCOC(=O)C(O)C(Cl)(c1ccccc1)C(C)C (configuration not stated)
T/C: 114 % of control

molecule: O=C(CCC1CCCC1)c1ccccc1
T/C: 98 % of control

molecule: CN(C)CCOC(=O)c1ccc(C=O)cc1
T/C: 110 % of control

molecule: O=C(Nc1cccc(F)c1)Oc1ccc(OCc2ccccc2)cc1
T/C: 90 % of control

molecule: C1N2CN3CN1CN(C2)C3
T/C: 100 % of control

molecule: OCCOC(O)C(Cl)(Cl)Cl (configuration not stated)
T/C: 92 % of control

molecule: SC(S)(Cc1ccccc1)Cc1ccccc1
T/C: 100 % of control

molecule: O=C(O)C(O)(Cc1ccccc1)C(=O)C(O)C(O)CO (configuration not stated)
T/C: 91 % of control

molecule: CCN(CC)c1ccc(Cc2ccc3c(c2O)C(=O)c2c(O)cccc2C3=O)cc1
T/C: 92 % of control

molecule: O=c1[nH]cc([N+](=O)[O-])c(=O)[nH]1
T/C: 106 % of control

molecule: COC1OC2CSC(=S)OC2C(OC)C1OC (configuration not stated)
T/C: 102 % of control

----------
# System: L1210 leukemia ip in BDF1 mice, survival T/C
# testDescription: NCI In Vivo Anticancer Drug Screen. Data for tumor model L1210 Leukemia (intraperitoneal) in B6D2F1 (BDF1) mice
# measurementParameters: endpoint: mean survival time; dose: 4.0 mg/kg/injection; schedule: Q01DX001 (ip); vehicle: saline; higher = longer survival
Inconclusive results and toxic doses are left out.

compound: NC1C2C(CC(=O)O)OCC=C3CN4CCC1(C(=O)C(=O)O)C4CC32 (centres undefined)
T/C: 106 % of control
--
compound: C/C=C(/C)C(=O)O[C@H]1CC[C@@]2(C)[C@@H]3CC[C@H]4[C@]5(O)C[C@H](O)[C@@]6(O)[C@@H](CN7C[C@@H](C)CC[C@H]7[C@@]6(C)O)[C@]5(O)C[C@@]42O[C@@]13O
T/C: 101 % of control
--
compound: N/C(=N\O)c1cn(C2OC(CO)C(O)C2O)c2ncnc(N)c12 (centres undefined)
T/C: 117 % of control
--
compound: CCOP(=O)(CCBr)Oc1ccc([N+](=O)[O-])cc1 (centres undefined)
T/C: 107 % of control

----------
# System: L1210 leukemia ip in BDF1 mice, survival T/C
# testDescription: NCI In Vivo Anticancer Drug Screen. Data for tumor model L1210 Leukemia (intraperitoneal) in B6D2F1 (BDF1) mice
# measurementParameters: endpoint: mean survival time; dose: 25.0 mg/kg/injection; schedule: Q04DX003 (ip); vehicle: saline; higher = longer survival
Toxic doses and inconclusive results are not listed.
Recorded measurements of T/C, one per entry
reportedEndpoint: T/C

molecule: NC1=NCc2ccccc21
target: L1210 leukemia ip in BDF1 mice, survival T/C
result: 93 % of control
//
molecule: O=C(O)COc1ccc(Cl)cc1Cl (tested in a mixture with another compound)
target: L1210 leukemia ip in BDF1 mice, survival T/C
result: 102 % of control
//
molecule: O=[N+]([O-])c1ccc(/C=N/c2nccs2)o1
target: L1210 leukemia ip in BDF1 mice, survival T/C
result: 97 % of control
//
molecule: Cc1ncc(CO)c(C2NOCc3ncsc32)c1O (stereo not drawn)
target: L1210 leukemia ip in BDF1 mice, survival T/C
result: 93 % of control
//
molecule: CCCCCCCCCCCCCCCCCC[N+](C)(C)C (tested in a mixture with another compound)
target: L1210 leukemia ip in BDF1 mice, survival T/C
result: 96 % of control
//
molecule: C[n+]1c(/C=C/c2ccc3cccc(O)c3n2)ccc2cccc(O)c21
target: L1210 leukemia ip in BDF1 mice, survival T/C
result: 97 % of control
//
molecule: Nc1csc2cccc[n+]12
target: L1210 leukemia ip in BDF1 mice, survival T/C
result: 100 % of control
//
molecule: CC(C)(C)C([NH-])=O.CC(C)(C)C([NH-])=O.[Cl][Pt+2][Cl]
target: L1210 leukemia ip in BDF1 mice, survival T/C
result: 102 % of control
